ASSAY METHOD TEXT: Inhibition of biotinylated PEX5 (unknown origin)/N-terminal His-tagged Trypanosoma cruzi PEX14 (19 to 84 residues) expressed in Escherichia coli BL21 by AlphaScreen assay
pEC50: −log10 of the molar value.
# cutoff 3 applies to pEC50; >= gives Criterion met, < gives Criterion not met

Task: Decide: pEC50 of `O=C(Cc1ccc(F)cc1)Nc1ccc2c(c1)Oc1ccccc1C(=O)N2` >= 3?
Result: Criterion met

Task: Decide: pEC50 of `CCN1C(=O)c2ccccc2Oc2cc(NC(=O)Oc3ccccc3)ccc21` >= 3?
Result: Criterion not met

Task: Decide: pEC50 of `CCN1C(=O)c2ccccc2Oc2cc(NC(=O)[C@@H](N)c3ccccc3)ccc21` >= 3?
Result: Criterion met

Task: Decide: pEC50 of `CCN1C(=O)c2ccccc2Oc2cc(NC(=O)[C@@H](NC(=O)OC(C)(C)C)c3ccccc3)ccc21` >= 3?
Result: Criterion not met

Task: Decide: pEC50 of `CCN1C(=O)c2ccccc2Oc2cc(NC(=O)Cc3ccsc3)ccc21` >= 3?
Result: Criterion not met

Task: Decide: pEC50 of `CCN1C(=O)c2ccccc2Oc2cc(NC(=O)Cc3cccc4ccccc34)ccc21` >= 3?
Result: Criterion not met

Task: Decide: pEC50 of `CCN1C(=O)c2ccccc2Oc2cc(NC(=O)Cc3ccc(Cl)cc3)ccc21` >= 3?
Result: Criterion not met

Task: Decide: pEC50 of `CCN1C(=O)c2ccccc2Oc2cc(NC(=O)Cc3ccc(F)cc3)ccc21` >= 3?
Result: Criterion not met

Task: Decide: pEC50 of `CCN1C(=O)c2ccccc2Oc2cc(NS(=O)(=O)Cc3ccccc3)ccc21` >= 3?
Result: Criterion not met
